tested on: Parabacteroides merdae; assay: growth AUC relative to DMSO control (median of replicates) (fraction); higher = more growth (less inhibition), active = hit call of the paper; settings: 20 µM; 24 h
quantity: growth AUC
The reply should be a number, written without any unit.

Tested on Parabacteroides merdae, the item CCOC(=O)C(SP(=S)(OC)OC)c1ccccc1 (stereo unspecified) showed growth AUC equal to 0.958

----------
test system: Bifidobacterium longum subsp. longum; assay: growth AUC relative to DMSO control (median of replicates) (fraction); higher = more growth (less inhibition), active = hit call of the paper; settings: 20 µM; 24 h
quantity: growth AUC

The cases that follow already have their growth AUC on record.
- C=CCC1=C(C)C(OC(=O)[C@@H]2[C@@H](C=C(C)C)C2(C)C)CC1=O (stereo partly specified): 1 (inactive)
- COc1ccc(-c2ccccc2)cc1NNC(=O)OC(C)C: 0.982 (inactive)
- Nc1c([N+](=O)[O-])ccc(Oc2ccccc2)c1Cl: 0.871 (inactive)

// sample CC(C)(C)C(O)/C(=C/c1ccc(Cl)cc1Cl)n1cncn1 (mixture of isomers) , its growth AUC was 1.02 (inactive)

// sample NCCO.O=C(O)c1nc(Cl)ccc1Cl , its growth AUC was 1.04 (inactive)

----------
test system: Odoribacter splanchnicus; test: growth AUC relative to DMSO control (median of replicates) (fraction); higher = more growth (less inhibition), active = hit call of the paper; conditions: 20 µM; 24 h
Below is a list of entries, each paired with its recorded growth AUC value.

Tested on Odoribacter splanchnicus, the item Cc1cc(Cl)ccc1O[C@H](C)C(=O)O showed growth AUC equal to 1.1 (inactive)

Tested on Odoribacter splanchnicus, the item CC(C)N1C(=O)c2ccccc2NS1(=O)=O showed growth AUC equal to 0.992 (inactive)

Tested on Odoribacter splanchnicus, the item CCOP(=O)(SC(C)CC)SC(C)CC (stereo not drawn) showed growth AUC equal to 0.933 (inactive)

----------
Below is a list of entries, each paired with its recorded growth AUC value.
test system: Eubacterium rectale; test: growth AUC relative to DMSO control (median of replicates) (fraction); higher = more growth (less inhibition), active = hit call of the paper; conditions: 20 µM; 24 h
The reply should be a number, written without any unit.

The cases that follow already have their growth AUC on record.
- CCOP(=S)(OCC)SCCS(=O)CC (stereo unspecified): 1.11
- Clc1ccc(Cl)cc1: 1.05
- Cc1cc(OC(=O)N(C)C)nn1C(=O)N(C)C: 1.01
- Nc1nc(N)nc(NC2CC2)n1: 1.04
- Nc1nc(N)[nH]c(=O)n1: 0.978

Please find the next compound below.
// sample O=C1CCc2cccc3c2N1CC3 , its growth AUC was 1.06

----------
system: Eubacterium rectale; test: growth AUC relative to DMSO control (median of replicates) (fraction); higher = more growth (less inhibition), active = hit call of the paper; details: 20 µM; 24 h
Below is a list of entries, each paired with its recorded growth AUC value.
The reply should be a number, written without any unit.

The cases that follow already have their growth AUC on record.
* CNC1=C(c2cccc(C(F)(F)F)c2)C(=O)C(c2ccccc2)O1 (stereo not given) | 1
* O=C(NC(=O)c1c(F)cccc1F)Nc1cc(Cl)c(Oc2ncc(C(F)(F)F)cc2Cl)c(Cl)c1 | 1.01
* Cc1cc(Cl)ccc1N=CN(C)C.Cl | 1.01
* CCOP(=S)(OCC)SCn1c(=O)oc2cc(Cl)ccc21 | 1

Please find the next compound below.
// sample CCC1(C(=O)NC(C)c2ccc(Cl)cc2)C(C)C1(Cl)Cl (stereo not given) , its growth AUC was 1

----------
Below is a list of entries, each paired with its recorded growth AUC value.
test system: Escherichia coli IAI1; assay: growth AUC relative to DMSO control (median of replicates) (fraction); higher = more growth (less inhibition), active = hit call of the paper; conditions: 20 µM; 24 h
The reply should be a number, written without any unit.

- CNC(=O)/C(=N/OC)c1ccccc1Oc1ccccc1: 0.997
- CC1(C)CCC(Cc2ccc(Cl)cc2)C1(O)Cn1cncn1 (configuration not stated): 0.98
- CCN(Cc1ccc(Cl)nc1)/C(=C/[N+](=O)[O-])NC: 0.987
- ClC1=C(Cl)C2(Cl)[C@H]3[C@H]4O[C@H]4[C@H](Cl)[C@H]3C1(Cl)C2(Cl)Cl (single isomer, unassigned; isomer a): 0.971
- O=[N+]([O-])c1ccc(Oc2ccc(Cl)cc2Cl)cc1: 0.983
- CCOP(=S)(OCC)SCS(=O)C(C)(C)C (configuration not stated): 1.01

// sample CCO/N=C(\CC)C1=C(O)CC(c2c(C)cc(C)cc2C)CC1=O (configuration not stated) , its growth AUC was 0.978

// sample CCOP(=S)(OCC)SCS(=O)CC (configuration not stated) , its growth AUC was 1.01

// sample CON(C)C(=O)Nc1ccc(Br)cc1 , its growth AUC was 1

// sample CNC(=O)N(C)c1nc2ccccc2s1 , its growth AUC was 0.991

// sample COc1ccc(-c2ccccc2)cc1NNC(=O)OC(C)C , its growth AUC was 1.01

// sample ClC1=C(Cl)C2(Cl)C3C4C=CC(C4)C3C1(Cl)C2(Cl)Cl (configuration not stated) , its growth AUC was 1.02

// sample O=[N+]([O-])c1c(Cl)c(Cl)c(Cl)c(Cl)c1Cl , its growth AUC was 1.01

// sample COP(N)(=S)Oc1ccccc1C(=O)OC(C)C (configuration not stated) , its growth AUC was 0.982

----------
test system: Parabacteroides distasonis; assay: growth AUC relative to DMSO control (median of replicates) (fraction); higher = more growth (less inhibition), active = hit call of the paper; settings: 20 µM; 24 h
quantity: growth AUC
The reply should be a number, written without any unit.

The cases that follow already have their growth AUC on record.
* ClC1=C(Cl)C2(Cl)[C@H]3[C@H]4O[C@H]4[C@H](Cl)[C@H]3C1(Cl)C2(Cl)Cl (single isomer, unassigned; isomer a) | 1.02
* Clc1ccc(C(c2ccc(Cl)cc2)C(Cl)Cl)cc1 | 1.02
* CCS(=O)(=O)Cc1ccccc1OC(=O)NC | 0.98

// sample CCOP(=S)(OCC)Oc1cc(Cl)c(SC)cc1Cl , its growth AUC was 1.01

// sample CCOP(=O)(OCC)Oc1ccc([N+](=O)[O-])cc1 , its growth AUC was 0.999

----------
test system: Parabacteroides merdae; experiment: growth AUC relative to DMSO control (median of replicates) (fraction); higher = more growth (less inhibition), active = hit call of the paper; conditions: 20 µM; 24 h
quantity: growth AUC
The reply should be a number, written without any unit.

The cases that follow already have their growth AUC on record.
• CC(Oc1ccc(Oc2nc3ccc(Cl)cc3o2)cc1)C(=O)O (racemic) = 0.97
• CCCCCCCCCCCCCN1CC(C)OC(C)C1 (configuration not stated) = 0.973
• C=C/C=C/CC1=C(C)C(OC(=O)[C@@H]2C(/C=C(\C)C(=O)OC)C2(C)C)CC1=O.C=C/C=C/CC1=C(C)[C@@H](OC(=O)[C@@H]2C(C=C(C)C)C2(C)C)CC1=O (some centres not stated) = 0.932

Please find the next compound below.
// sample Cc1cc(Cl)ccc1OC(C)C(=O)O (configuration not stated) , its growth AUC was 1.02

----------
tested on: Bacteroides clarus; test: growth AUC relative to DMSO control (median of replicates) (fraction); higher = more growth (less inhibition), active = hit call of the paper; conditions: 20 µM; 24 h
quantity: growth AUC
The reply should be a number, written without any unit.

- C=CCNC(=O)c1c([Si](C)(C)C)sc(C)c1C: 0.973
- CN/C(=N\[N+](=O)[O-])NCc1cnc(Cl)s1: 1.02
- CCS(=O)Cc1ccccc1OC(=O)NC (centres undefined): 0.986
- ClC1=C(Cl)C2(Cl)C3C4C=CC(C4)C3C1(Cl)C2(Cl)Cl (centres undefined): 0.987
- CC(C)(C)c1ccc(CSc2cnn(C(C)(C)C)c(=O)c2Cl)cc1: 0.959
- CCC1COC(Cn2cncn2)(c2ccc(Cl)cc2Cl)O1 (centres undefined): 0.935

Tested on Bacteroides clarus, the item C=CCN=C=S showed growth AUC equal to 0.993

Tested on Bacteroides clarus, the item CCS(=O)(=O)Oc1ccc2c(c1)C(C)(C)CO2 showed growth AUC equal to 0.967

Tested on Bacteroides clarus, the item Cc1cccc(C)c1N showed growth AUC equal to 0.973

Tested on Bacteroides clarus, the item CCNc1nc(NC(C)C)nc(SC)n1 showed growth AUC equal to 0.997

Tested on Bacteroides clarus, the item COCC(=O)N(c1c(C)cccc1C)[C@@H](C)C(=O)OC showed growth AUC equal to 0.968

Tested on Bacteroides clarus, the item O=C(NC(=O)c1c(F)cccc1F)Nc1ccc(OC(F)(F)C(F)OC(F)(F)F)c(Cl)c1 (centres undefined) showed growth AUC equal to 1.01

Tested on Bacteroides clarus, the item CN(C)C(CSC(N)=O)CSC(N)=O.Cl showed growth AUC equal to 1.04

Tested on Bacteroides clarus, the item Cc1cc(C)c(C2=C(OC(=O)CC(C)(C)C)C3(CCCC3)OC2=O)c(C)c1 showed growth AUC equal to 1
